# Test system: COLO 205 colon
# Test: NCI-60 one-dose screen, 48 h
# Condition: 10 µM unless noted
The panel holds about 83,000 compounds, 20% with a hit somewhere; the sample as a whole holds those more often. Calls of active or inactive are those of the source. The calls were made as follows: active = growth percent below 10; inactive = the rest.
Labels: true (active), false (inactive)

compound=CN1CCN(Cc2ccc(NC(=O)c3cncc(C#Cc4cnc5ccc(N6CCN(C)CC6)nn45)c3)cc2C(F)(F)F)CC1 target="COLO 205 colon" category=false
compound=COc1cc(Nc2c(C#N)cnn3cc(-c4cnn(CC(C)(C)O)c4)cc23)ccc1Cl target="COLO 205 colon" category=false
compound="COc1cc(C2N=C(NNc3ccccc3)NC(C)=C2C(C)=O)ccc1O (centres undefined)" target="COLO 205 colon" category=false
compound=COc1ccc(/C=C/C(=O)c2cc(S(N)(=O)=O)c(OC)cc2OC)cc1 target="COLO 205 colon" category=false
compound=Cc1ccc(S(=O)(=O)N(CC[C@@H]2C[C@H]2c2cc3ccccc3o2)S(=O)(=O)c2ccc(C)cc2)cc1 target="COLO 205 colon" category=false
compound=Cc1ccc(NC(=O)CNc2cc(C(N)=O)cc(F)c2C)c(Cl)c1 target="COLO 205 colon" category=false
compound=NC(N)=Nc1ccc(Oc2cccc(Nc3ccc(Br)c(C(F)(F)F)c3)c2)cc1 target="COLO 205 colon" category=true
compound="COc1cc(/C=N/NC(=O)c2cn(C3CC3)c3c(OC)c(N4CC5CCCNC5C4)c(F)cc3c2=O)ccc1O (centres undefined)" target="COLO 205 colon" category=false
compound=N/C(=N\C(N)=N\c1nc2ccccc2s1)c1ccc2ccccc2c1 target="COLO 205 colon" category=false
